- measurementProtocol: HPLC lactone stability in presence of DMPC SUV
- Format: physicochemical
- experimentalContext: DMPC SUV, PBS pH 7.4, 37° C, 1 hr, 1 μM drug; read-out: Percentage of Lactone, DMPC, 1 Hr
- Method: To further study the differential interactions of CT-17 versus 7AEC with liposomal particles, high performance liquid chromatographic (HPLC) methods were employed to study drug stabilities in the absence and presence of membranes. In these experiments, small unilamellar vesicles (SUV) composed of dimyristoyl phosphatidylcholine (DMPC) were prepared by weighing out dry lipid powder (Avanti Polar Lipids) in a glass tube with screw cap top. […]
readoutLabel: remaining at 1 h, 1 µM

CC[C@@]1(O)C(=O)OCc2c1cc1n(c2=O)Cc2c-1nc1ccccc1c2CNN1CCN(C)CC1 [CT-17]; 34%
